These entries and their values trace back to the Human Domainome abundance scans (Beltran et al. 2025).

B1: Transcription intermediary factor 1-beta, residues 620 to 671; numbered along this chain, Q13263 (parent)
chain: TLDDSATICRVCQKPGDLVMCNQCEFCFHLDCHLPALQDVPGEEWSCSLCHV

variants of: B1; experiment: abundance fitness (aPCA) (normalised: wild type 0, dead -1); higher = more abundant; growth selection in yeast, the domain comes from the species named; conditions: Homo sapiens
Where abundance fitness equals or exceeds -0.3, the correct label is fulfilled; where it does not, the label is not fulfilled.

Here are 8 variants together with their reported answers.
MUTATION_SPEC	LABEL_VALUE
H51P	fulfilled
C50T	not fulfilled
Q38L	fulfilled
S5R	fulfilled
V11G	fulfilled
V11N	fulfilled
C32D	not fulfilled
S48T	fulfilled

Say whether M20H shows abundance fitness of -0.3 or more.
not fulfilled

Say whether C21D shows abundance fitness of -0.3 or more.
not fulfilled

Say whether I8C shows abundance fitness of -0.3 or more.
fulfilled

Say whether A36H shows abundance fitness of -0.3 or more.
fulfilled

Say whether G16Y shows abundance fitness of -0.3 or more.
not fulfilled

Say whether C24K shows abundance fitness of -0.3 or more.
not fulfilled

Say whether L2G shows abundance fitness of -0.3 or more.
not fulfilled
